Origin of measurements: patent US7214697B2

Assignment: determine reported % Increase in Heart Rate for the given compounds.
Test system: rat atria
Test: In Vitro Rat Atrial Tachycardia
Conditions: isolated rat atria, cumulative addition until no further increase in atrial rate or 10^-4; average of at least 3 runs
Give bare numbers, in %.

CC(C)(Cc1ccc(Cc2ccc(C(N)=O)cn2)cc1)NC[C@H](O)COc1cccc2[nH]c(=O)[nH]c12 [Hydrogen, reference compound]: 17.7
CC(C)(Cc1ccc(Cc2ccc(C(N)=O)cn2)cc1)NC[C@H](O)COc1cccc2[nH]c(=O)n(CC3CC3)c12: 8.9
CCn1c(=O)[nH]c2cccc(OC[C@@H](O)CNC(C)(C)Cc3ccc(Cc4ccc(C(N)=O)cn4)cc3)c21 [Ethyl, reference compound]: 19.9
CC(C)(Cc1ccc(Cc2ccc(C(N)=O)cn2)cc1)NC[C@H](O)COc1cccc2[nH]c(=O)n(CC3CCCC3)c12: 9.9
Cn1c(=O)[nH]c2cccc(OC[C@@H](O)CNC(C)(C)Cc3ccc(Cc4ccc(C(N)=O)cn4)cc3)c21 [Methyl, reference compound]: 20.8

Next compound, % Increase in Heart Rate to be filled in.
Briefly, % Increase in Heart Rate measured for CC(C)(Cc1ccc(Cc2ccc(C(N)=O)cn2)cc1)NC[C@H](O)COc1cccc2[nH]c(=O)n(CC3CCC3)c12 : 6.5
